measurement.target: Cathepsin B (Homo sapiens, UniProt P07858)
assay.metric: IC50

Value lookup for IC50; key = Cn1nccc1[C@]1(CNC(=O)c2ccc(F)c(F)c2-c2ccc(C(F)(F)F)cc2)NC(=O)NC1=O
> 100 µM

====

measurement.target: Disintegrin and metalloproteinase domain-containing protein 8 (Homo sapiens, UniProt P78325)
assay.metric: IC50 (nM)
Please respond with the number in nM and leave the unit unwritten.

Fill in: IC50 of Cn1nccc1[C@]1(CNC(=O)c2ccc(F)c(F)c2-c2ccc(C(F)(F)F)cc2)NC(=O)NC1=O is ___
2250

====

measurement.target: Disintegrin and metalloproteinase domain-containing protein 10 (Homo sapiens, UniProt O14672)
Sequence (O14672 whole entry, the tested form may be a part): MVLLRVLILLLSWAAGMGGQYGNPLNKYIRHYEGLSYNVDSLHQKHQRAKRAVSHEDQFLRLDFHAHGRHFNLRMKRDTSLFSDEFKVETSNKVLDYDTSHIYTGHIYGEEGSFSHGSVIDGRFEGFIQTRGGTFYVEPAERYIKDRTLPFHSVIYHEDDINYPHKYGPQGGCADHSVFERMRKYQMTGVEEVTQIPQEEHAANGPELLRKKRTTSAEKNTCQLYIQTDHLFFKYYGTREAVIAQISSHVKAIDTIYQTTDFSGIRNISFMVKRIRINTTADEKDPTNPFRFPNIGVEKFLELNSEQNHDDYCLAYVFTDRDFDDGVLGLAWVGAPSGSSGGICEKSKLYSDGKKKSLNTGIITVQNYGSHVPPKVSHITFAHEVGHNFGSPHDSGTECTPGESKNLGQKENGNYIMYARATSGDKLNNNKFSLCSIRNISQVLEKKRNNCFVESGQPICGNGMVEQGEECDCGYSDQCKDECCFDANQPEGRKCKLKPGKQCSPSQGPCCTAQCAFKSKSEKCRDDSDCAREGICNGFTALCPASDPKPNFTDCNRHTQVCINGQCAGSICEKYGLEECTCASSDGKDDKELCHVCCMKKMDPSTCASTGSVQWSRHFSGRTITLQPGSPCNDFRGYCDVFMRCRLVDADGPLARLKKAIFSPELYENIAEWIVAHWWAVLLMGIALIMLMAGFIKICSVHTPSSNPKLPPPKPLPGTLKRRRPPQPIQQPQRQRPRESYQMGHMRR
test.protocol: IC50 of hADAM10 at 1.0 µM in the Bayer in-house protease panel
assay.metric: pIC50
Please report pIC50 as the negative decimal logarithm of the molar concentration, giving only the number.

Report pIC50 for Cn1nccc1[C@]1(CNC(=O)c2ccc(F)c(F)c2-c2ccc(C(F)(F)F)cc2)NC(=O)NC1=O please.
4.48

====

measurement.target: Monoamine oxidase B (MAO-B) (Homo sapiens)
Sequence (P27338 whole entry): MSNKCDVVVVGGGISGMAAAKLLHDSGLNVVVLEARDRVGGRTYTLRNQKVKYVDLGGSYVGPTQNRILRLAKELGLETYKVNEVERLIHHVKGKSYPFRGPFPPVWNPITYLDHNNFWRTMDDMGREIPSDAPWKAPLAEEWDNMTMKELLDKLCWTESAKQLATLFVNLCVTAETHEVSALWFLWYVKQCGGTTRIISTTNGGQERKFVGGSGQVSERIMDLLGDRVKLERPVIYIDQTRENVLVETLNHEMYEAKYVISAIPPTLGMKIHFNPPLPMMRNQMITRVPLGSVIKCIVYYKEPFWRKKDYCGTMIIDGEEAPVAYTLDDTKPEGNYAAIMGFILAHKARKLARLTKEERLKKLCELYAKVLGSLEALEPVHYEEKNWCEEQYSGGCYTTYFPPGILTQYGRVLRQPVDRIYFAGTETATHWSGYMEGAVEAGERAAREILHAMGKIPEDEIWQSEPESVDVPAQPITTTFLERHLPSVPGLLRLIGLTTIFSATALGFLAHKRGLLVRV
test.protocol: Inhibition of Monoamine Oxidase MAO-B at 10.0 µM in the Eurofins-Panlabs selectivity screen
particulars: compound concentration 10 uM
assay.metric: inhibition at 10 µM (%)
Give the quantity in %, number only.

Request body: readout inhibition at 10 µM, system Monoamine oxidase B (MAO-B) (Homo sapiens), query Cn1nccc1[C@]1(CNC(=O)c2ccc(F)c(F)c2-c2ccc(C(F)(F)F)cc2)NC(=O)NC1=O . Return the value.
10

====

measurement.target: Caspase-3 (Homo sapiens, UniProt P42574)
pIC50: −log10 of the molar value.
assay.metric: pIC50

I am curious: what pIC50 value has been reported for Cn1nccc1[C@]1(CNC(=O)c2ccc(F)c(F)c2-c2ccc(C(F)(F)F)cc2)NC(=O)NC1=O ?
< 4.00

====

measurement.target: A disintegrin and metalloproteinase with thrombospondin motifs 5 (Homo sapiens, UniProt Q9UNA0)
Sequence (Q9UNA0 whole entry): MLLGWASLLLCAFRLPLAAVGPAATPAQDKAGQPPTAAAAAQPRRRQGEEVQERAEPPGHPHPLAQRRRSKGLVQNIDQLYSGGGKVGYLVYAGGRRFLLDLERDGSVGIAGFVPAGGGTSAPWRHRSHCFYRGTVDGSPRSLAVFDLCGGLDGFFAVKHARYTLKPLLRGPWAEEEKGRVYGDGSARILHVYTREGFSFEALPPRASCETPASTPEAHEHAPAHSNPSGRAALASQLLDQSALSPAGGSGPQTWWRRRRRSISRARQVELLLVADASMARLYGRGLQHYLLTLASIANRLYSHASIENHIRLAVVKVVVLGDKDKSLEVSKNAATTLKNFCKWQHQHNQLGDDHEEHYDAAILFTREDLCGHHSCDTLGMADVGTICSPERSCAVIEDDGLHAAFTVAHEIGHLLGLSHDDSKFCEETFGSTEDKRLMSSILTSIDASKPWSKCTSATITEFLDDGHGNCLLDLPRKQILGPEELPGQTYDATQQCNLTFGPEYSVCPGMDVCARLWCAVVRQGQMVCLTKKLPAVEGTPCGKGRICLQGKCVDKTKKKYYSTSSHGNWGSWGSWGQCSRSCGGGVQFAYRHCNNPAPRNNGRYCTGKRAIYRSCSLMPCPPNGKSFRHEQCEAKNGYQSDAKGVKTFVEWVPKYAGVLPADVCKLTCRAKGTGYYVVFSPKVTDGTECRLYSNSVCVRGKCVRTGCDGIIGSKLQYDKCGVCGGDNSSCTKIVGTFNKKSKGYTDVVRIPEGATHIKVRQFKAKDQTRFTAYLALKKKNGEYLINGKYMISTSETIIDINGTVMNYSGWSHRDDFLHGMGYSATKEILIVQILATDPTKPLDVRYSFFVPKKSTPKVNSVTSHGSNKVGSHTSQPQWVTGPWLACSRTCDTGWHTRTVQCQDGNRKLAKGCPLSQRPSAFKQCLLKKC
assay.metric: IC50 (µM)
# unit: µM | format: bare number

Give its IC50 value. Item: Cn1nccc1[C@]1(CNC(=O)c2ccc(F)c(F)c2-c2ccc(C(F)(F)F)cc2)NC(=O)NC1=O
9.92

====

measurement.target: 72 kDa type IV collagenase (Homo sapiens, UniProt P08253)
Sequence (P08253 whole entry): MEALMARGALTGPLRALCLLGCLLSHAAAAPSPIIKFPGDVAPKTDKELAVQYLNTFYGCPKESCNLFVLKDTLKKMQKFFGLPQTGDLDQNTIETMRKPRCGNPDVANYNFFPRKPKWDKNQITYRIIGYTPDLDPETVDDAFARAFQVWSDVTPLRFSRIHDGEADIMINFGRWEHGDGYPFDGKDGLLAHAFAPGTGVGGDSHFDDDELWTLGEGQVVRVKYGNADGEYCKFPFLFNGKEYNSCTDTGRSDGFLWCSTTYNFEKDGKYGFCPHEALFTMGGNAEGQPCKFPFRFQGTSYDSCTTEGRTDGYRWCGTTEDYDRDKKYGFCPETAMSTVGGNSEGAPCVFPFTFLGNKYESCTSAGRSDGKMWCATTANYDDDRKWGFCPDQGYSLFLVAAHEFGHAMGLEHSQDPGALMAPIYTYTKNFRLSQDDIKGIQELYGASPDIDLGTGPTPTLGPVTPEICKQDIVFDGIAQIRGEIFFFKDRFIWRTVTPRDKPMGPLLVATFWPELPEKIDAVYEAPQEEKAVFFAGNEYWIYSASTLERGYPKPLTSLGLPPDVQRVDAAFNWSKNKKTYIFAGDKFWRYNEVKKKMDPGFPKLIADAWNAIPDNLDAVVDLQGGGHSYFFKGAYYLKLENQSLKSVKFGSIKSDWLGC
assay.metric: IC50

Please tell me: IC50 of Cn1nccc1[C@]1(CNC(=O)c2ccc(F)c(F)c2-c2ccc(C(F)(F)F)cc2)NC(=O)NC1=O , system 72 kDa type IV collagenase (Homo sapiens, UniProt P08253)?
> 100 µM

====

measurement.target: UniProt P21397
Sequence (P21397 whole entry): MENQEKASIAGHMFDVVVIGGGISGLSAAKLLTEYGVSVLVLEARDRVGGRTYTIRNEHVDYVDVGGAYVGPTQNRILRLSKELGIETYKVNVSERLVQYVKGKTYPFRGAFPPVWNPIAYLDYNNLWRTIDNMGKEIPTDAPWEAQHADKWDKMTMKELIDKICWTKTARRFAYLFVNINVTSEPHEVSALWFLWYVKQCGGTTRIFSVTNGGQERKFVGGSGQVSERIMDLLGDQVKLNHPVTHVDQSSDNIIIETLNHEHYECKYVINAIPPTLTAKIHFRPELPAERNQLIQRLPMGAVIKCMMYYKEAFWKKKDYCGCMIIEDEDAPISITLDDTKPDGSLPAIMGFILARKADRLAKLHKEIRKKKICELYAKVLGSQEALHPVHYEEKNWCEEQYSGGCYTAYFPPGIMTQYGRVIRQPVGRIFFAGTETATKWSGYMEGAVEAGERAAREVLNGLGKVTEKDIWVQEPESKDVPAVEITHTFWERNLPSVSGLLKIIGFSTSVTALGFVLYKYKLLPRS
test.protocol: Inhibition of Monoamine Oxidase MAO-A at 10.0 µM in the Eurofins-Panlabs selectivity screen
particulars: compound concentration 10 uM
assay.metric: inhibition at 10 µM (%)
Express your answer in %, writing the number without its unit.

Look up inhibition at 10 µM: Cn1nccc1[C@]1(CNC(=O)c2ccc(F)c(F)c2-c2ccc(C(F)(F)F)cc2)NC(=O)NC1=O
0

====

measurement.target: Disintegrin and metalloproteinase domain-containing protein 17 (Homo sapiens, UniProt P78536)
assay.metric: IC50 (µM)
Your answer is read as µM, so omit the unit and give the number.

Give the measured IC50 of Cn1nccc1[C@]1(CNC(=O)c2ccc(F)c(F)c2-c2ccc(C(F)(F)F)cc2)NC(=O)NC1=O .
5.77

====

measurement.target: Matrix metalloproteinase-14 (Homo sapiens)
assay.metric: IC50

Could you tell me which IC50 is on file for Cn1nccc1[C@]1(CNC(=O)c2ccc(F)c(F)c2-c2ccc(C(F)(F)F)cc2)NC(=O)NC1=O ?
> 100 µM

====

measurement.target: Mucosa-associated lymphoid tissue lymphoma translocation protein 1 (Homo sapiens, UniProt Q9UDY8)
pIC50: −log10 of the molar value.
assay.metric: pIC50

Look at this compound and give its reported pIC50. Cn1nccc1[C@]1(CNC(=O)c2ccc(F)c(F)c2-c2ccc(C(F)(F)F)cc2)NC(=O)NC1=O
< 4.00

====

measurement.target: Cathepsin S (Homo sapiens)
Sequence (P25774 whole entry): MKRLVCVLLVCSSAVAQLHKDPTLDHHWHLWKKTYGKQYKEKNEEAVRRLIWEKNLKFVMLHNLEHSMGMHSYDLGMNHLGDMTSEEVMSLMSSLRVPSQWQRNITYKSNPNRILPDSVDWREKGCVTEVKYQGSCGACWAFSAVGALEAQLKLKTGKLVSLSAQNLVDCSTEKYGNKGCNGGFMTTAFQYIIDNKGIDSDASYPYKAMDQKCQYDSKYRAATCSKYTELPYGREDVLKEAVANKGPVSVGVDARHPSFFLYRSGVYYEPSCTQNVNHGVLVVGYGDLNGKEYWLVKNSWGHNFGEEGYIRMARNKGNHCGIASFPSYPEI
pIC50: −log10 of the molar value.
assay.metric: pIC50

Fill blank: measured pIC50 of the molecule Cn1nccc1[C@]1(CNC(=O)c2ccc(F)c(F)c2-c2ccc(C(F)(F)F)cc2)NC(=O)NC1=O is ____.
< 4.00

====

measurement.target: UniProtKB O75173
Sequence (O75173 whole entry): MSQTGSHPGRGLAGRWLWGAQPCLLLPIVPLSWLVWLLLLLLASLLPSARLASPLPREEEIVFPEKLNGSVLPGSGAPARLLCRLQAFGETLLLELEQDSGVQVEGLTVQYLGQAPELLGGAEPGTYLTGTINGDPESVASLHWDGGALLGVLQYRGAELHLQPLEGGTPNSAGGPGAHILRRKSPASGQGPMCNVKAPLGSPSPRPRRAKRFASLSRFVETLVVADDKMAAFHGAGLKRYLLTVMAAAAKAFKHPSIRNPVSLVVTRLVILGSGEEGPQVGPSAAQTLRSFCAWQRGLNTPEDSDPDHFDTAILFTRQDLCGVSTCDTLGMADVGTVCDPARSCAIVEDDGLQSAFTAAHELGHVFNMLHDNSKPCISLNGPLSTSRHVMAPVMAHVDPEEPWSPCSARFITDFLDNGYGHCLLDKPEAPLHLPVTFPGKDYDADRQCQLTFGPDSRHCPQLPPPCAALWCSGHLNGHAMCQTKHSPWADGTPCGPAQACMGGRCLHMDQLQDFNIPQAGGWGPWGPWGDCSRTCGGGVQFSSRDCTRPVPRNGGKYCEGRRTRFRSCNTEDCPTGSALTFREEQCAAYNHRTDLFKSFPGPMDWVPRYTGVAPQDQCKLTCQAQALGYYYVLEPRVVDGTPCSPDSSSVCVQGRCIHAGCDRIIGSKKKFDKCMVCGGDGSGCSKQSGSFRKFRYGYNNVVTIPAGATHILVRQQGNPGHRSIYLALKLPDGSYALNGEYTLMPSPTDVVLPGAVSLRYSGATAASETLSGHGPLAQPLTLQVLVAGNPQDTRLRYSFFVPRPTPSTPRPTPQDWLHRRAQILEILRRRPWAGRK
test.protocol: IC50 of hADAMTS4 at 1.0 µM in the Bayer in-house protease panel
assay.metric: pIC50
Here pIC50 is given on a logarithmic scale as minus log10 of the concentration in mol/L.

Given the entry Cn1nccc1[C@]1(CNC(=O)c2ccc(F)c(F)c2-c2ccc(C(F)(F)F)cc2)NC(=O)NC1=O , report its measured pIC50.
5.17

====

measurement.target: Calpain-1 catalytic subunit (Homo sapiens)
Sequence (P07384 whole entry): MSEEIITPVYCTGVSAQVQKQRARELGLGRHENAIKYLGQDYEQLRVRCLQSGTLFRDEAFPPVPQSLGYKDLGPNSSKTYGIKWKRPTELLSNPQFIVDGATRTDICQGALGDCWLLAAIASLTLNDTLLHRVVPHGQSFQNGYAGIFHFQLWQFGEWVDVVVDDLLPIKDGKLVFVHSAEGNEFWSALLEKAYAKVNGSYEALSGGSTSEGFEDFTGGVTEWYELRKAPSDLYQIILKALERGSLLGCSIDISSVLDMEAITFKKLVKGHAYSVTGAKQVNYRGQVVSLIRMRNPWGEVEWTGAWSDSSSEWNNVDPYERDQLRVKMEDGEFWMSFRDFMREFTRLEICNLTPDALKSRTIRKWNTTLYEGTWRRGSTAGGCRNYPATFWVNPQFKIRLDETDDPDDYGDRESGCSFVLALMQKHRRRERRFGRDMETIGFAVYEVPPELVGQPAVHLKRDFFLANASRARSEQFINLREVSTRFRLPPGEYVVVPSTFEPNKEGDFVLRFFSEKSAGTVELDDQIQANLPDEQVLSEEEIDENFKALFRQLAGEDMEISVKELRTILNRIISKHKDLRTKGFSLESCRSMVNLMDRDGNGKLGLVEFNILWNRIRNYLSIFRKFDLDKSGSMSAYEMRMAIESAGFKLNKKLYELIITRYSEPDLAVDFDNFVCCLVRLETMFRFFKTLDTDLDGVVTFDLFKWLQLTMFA
test.protocol: IC50 of Calpain 1 at 1.0 µM in the Bayer in-house protease panel
pIC50: −log10 of the molar value.
assay.metric: pIC50

Give its pIC50 value. Item: Cn1nccc1[C@]1(CNC(=O)c2ccc(F)c(F)c2-c2ccc(C(F)(F)F)cc2)NC(=O)NC1=O
< 4.00

Entry source: ChEMBL document CHEMBL5723583
